Test system: HRMEC cells
procedure_details: In vitro cell proliferation assay (MTT)
Format: cell-based
condition_label: 72 hr, EC50 ≦ 100 nM, read-out: EC50, anti-proliferative activity
pEC50: −log10 of the molar value.
quantity_kind: pEC50

Entry CC(=O)c1cc2cc(CCc3cc(NC(=O)c4ccc(CN5CCN(C)CC5)c(C(F)(F)F)c4)ccc3C)cnc2[nH]1 , pEC50 reported as ≥ 7.00

====

A collection of molecules and their measured inhibition at 0.1 µM
test_target: KDR (VEGFR2) (Homo sapiens)
Construct: purchased Invitrogen
Sequence (P35968 20-1356): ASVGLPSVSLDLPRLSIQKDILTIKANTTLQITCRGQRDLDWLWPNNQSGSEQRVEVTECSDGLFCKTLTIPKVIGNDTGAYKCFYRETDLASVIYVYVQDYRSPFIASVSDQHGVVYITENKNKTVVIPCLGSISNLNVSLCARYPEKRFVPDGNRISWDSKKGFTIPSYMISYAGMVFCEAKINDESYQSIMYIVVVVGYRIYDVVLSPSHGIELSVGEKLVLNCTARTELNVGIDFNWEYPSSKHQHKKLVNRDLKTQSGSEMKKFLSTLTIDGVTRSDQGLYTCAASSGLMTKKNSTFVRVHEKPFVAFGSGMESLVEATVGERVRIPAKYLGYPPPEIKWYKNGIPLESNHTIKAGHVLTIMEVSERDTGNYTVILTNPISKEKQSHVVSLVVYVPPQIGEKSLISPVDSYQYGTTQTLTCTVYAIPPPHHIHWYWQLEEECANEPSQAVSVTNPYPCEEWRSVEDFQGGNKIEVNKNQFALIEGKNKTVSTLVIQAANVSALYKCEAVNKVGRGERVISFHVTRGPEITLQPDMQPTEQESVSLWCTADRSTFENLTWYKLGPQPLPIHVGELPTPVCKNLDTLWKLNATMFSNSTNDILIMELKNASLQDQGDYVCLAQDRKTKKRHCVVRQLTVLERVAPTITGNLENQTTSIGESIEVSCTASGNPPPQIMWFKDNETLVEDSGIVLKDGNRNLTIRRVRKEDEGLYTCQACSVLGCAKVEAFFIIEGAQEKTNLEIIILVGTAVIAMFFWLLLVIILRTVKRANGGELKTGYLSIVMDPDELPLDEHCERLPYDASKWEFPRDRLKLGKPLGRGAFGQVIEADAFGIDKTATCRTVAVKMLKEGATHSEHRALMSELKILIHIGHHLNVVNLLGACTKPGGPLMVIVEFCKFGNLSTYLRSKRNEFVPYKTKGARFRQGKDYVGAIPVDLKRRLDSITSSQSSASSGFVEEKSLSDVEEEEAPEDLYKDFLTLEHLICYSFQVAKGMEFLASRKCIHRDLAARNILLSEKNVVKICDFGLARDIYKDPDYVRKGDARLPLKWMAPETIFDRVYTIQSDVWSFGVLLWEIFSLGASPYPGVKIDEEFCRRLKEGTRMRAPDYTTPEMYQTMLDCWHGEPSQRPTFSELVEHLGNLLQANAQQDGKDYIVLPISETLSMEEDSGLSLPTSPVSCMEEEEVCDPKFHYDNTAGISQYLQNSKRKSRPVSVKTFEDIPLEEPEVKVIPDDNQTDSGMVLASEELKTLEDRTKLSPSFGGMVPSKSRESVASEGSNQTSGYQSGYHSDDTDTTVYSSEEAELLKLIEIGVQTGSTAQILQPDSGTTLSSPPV
procedure_details: In vitro kinase assay (Z'-LYTE, Invitrogen)
Type: biochemical
condition_label: compound at 100 nM, ATP Km apparent, read-out: % of inhibition of the kinase compared to the control

COC(=O)c1cc2cc(CNC(=O)c3cc(NC(=O)c4ccc(CN5CCN(C)CC5)cc4)ccc3C)cnc2[nH]1; < 50%
COC(=O)c1cc2cc(NCCc3cccc(NC(=O)c4ccc(CN5CCN(C)CC5)c(C(F)(F)F)c4)c3)cnc2[nH]1; ≥ 50%
COC(=O)c1cc2cc(CNCc3cccc(NC(=O)c4ccc(CN5CCN(C)CC5)c(C(F)(F)F)c4)c3)cnc2[nH]1; ≥ 50%

CC(=O)c1cc2cc(CCc3cc(NC(=O)c4ccc(CN5CCN(C)CC5)c(C(F)(F)F)c4)ccc3C)cnc2[nH]1 yielded inhibition at 0.1 µM of ≥ 50%

Quick note, inhibition at 0.1 µM for COC(=O)c1cc2cc(CCc3ccc(C)c(NC(=O)c4ccc(CN5CCC(N(C)C)C5)c(C(F)(F)F)c4)c3)cnc2[nH]1 (stereo not shown) landed at ≥ 50%

Entry CC(=O)c1cc2cc(CCc3cc(NC(=O)Cc4cccc(C(F)(F)F)c4)ccc3C)cnc2[nH]1 , inhibition at 0.1 µM reported as < 50%

Record summary for COC(=O)c1cc2cc(CCc3cc(NC(=O)c4ccccc4OC)ccc3Cl)cnc2[nH]1 : reported inhibition at 0.1 µM = < 50%

COC(=O)c1cc2cc(CCc3cccc(NC(=O)c4ccc(CN5CCN(C)CC5)c(C(F)(F)F)c4)c3)cnc2[nH]1 has a reported inhibition at 0.1 µM of ≥ 50%

Consider COC(=O)c1cc2cc(COc3cc(NC(=O)c4ccc(CN5CCC(N(C)C)C5)c(C(F)(F)F)c4)ccc3C)cnc2[nH]1 (stereo not shown) . Its measured inhibition at 0.1 µM is ≥ 50%

Short answer for COC(=O)c1cc2cc(CCc3cc(NC(=S)c4ccc(CN5CCN(C)CC5)cc4)ccc3C)cnc2[nH]1 : inhibition at 0.1 µM was ≥ 50%

// COC(=O)c1cc2cc(CSc3cccc(NC(=O)c4cccc(C(F)(F)F)c4)c3)cnc2[nH]1 : inhibition at 0.1 µM value = ≥ 50%

The molecule listed as COC(=O)c1cc2cc(CCc3cccc(NC(=O)c4cc[nH]c4)c3)cnc2[nH]1 has a reported inhibition at 0.1 µM of < 50%

Record CC(=O)c1cc2cc(CCc3cc(NC(=S)Nc4cccc(C(F)(F)F)c4)ccc3C)cnc2[nH]1 . Reported inhibition at 0.1 µM: < 50%

The reported measurements were obtained from patent US9550772B2.
